Target: T1, human 5T4-His protein (human, UniProt Q13641 32-355)
T1 construct: also called recombinant 5T4 protein (human 5T4-his tag); human 5T4 protein; not shown: His tag
T1 sequence (looked up): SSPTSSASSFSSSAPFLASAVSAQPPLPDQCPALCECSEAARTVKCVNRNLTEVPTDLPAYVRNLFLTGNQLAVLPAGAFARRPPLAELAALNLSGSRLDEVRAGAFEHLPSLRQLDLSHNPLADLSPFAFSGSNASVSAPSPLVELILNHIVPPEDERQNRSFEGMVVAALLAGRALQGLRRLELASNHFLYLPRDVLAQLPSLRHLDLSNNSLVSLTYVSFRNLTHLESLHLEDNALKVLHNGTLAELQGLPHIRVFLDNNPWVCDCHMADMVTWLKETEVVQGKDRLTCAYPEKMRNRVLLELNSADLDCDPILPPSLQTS
Assay: ELISA, coated 5T4-His
pEC50: −log10 of the molar value.

binder | pEC50
393E9_hVH3_hVL5 (antibody, V domains shown, humanized) VH: QVQLVESGGGVVQPGGSLRLSCAASGFTFTDYYMSWVRQAPGKGLEWVGFIRNKGNGYTTENSASVKGRFTISRDNSKSTLYLQMNSLRAEDTAVYYCARYRGNPHYAMDYWGQGTLVTVSS VL: EIVLTQSPGTLSLSPGERATLSCRASESVEFYGTSFLQWYQQKPGQAPRLLIYGASNVESGIPDRFSGSGSGTDFTLTISRLEPEDIAVYFCQQSRKVPSTFGGGTKVEIK | 9.92
